Target: UniProt P10635
Sequence (P10635 whole entry): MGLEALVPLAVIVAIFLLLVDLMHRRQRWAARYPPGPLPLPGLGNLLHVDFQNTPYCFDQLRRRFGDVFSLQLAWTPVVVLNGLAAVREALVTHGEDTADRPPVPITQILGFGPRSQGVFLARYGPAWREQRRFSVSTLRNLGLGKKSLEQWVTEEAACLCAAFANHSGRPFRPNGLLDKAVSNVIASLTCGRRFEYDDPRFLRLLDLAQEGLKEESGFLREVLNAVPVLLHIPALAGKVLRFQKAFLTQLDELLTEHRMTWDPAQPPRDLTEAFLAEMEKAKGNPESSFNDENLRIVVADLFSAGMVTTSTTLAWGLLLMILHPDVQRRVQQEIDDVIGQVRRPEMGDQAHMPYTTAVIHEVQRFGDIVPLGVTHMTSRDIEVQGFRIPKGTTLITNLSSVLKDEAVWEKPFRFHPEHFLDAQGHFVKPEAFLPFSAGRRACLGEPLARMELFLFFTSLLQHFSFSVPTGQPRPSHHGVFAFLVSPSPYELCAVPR
Assay: Inhibition of CYP2D6 after 30 mins by fluorometric assay
Format: ADME
Details: read-out: IC50
Below, each entry is listed with its recorded IC50.
Report the value in µM with no unit label.

Example compounds with recorded IC50:
compound="COc1cc(C[C@H]2CO[C@H](c3ccc(O)c(O)c3)[C@H]2CO)ccc1O [TAXIRESINOL]" parameter=IC50 result_value=68.1
compound="COc1cc([C@H]2c3cc(O)c(OC)cc3C[C@H]3C(=O)OC[C@H]23)ccc1O [ALPHA-CONIDENDRIN]" parameter=IC50 result_value=17.7

Okay, next one:
-- ask Request body: readout IC50, system UniProt P10635, query COc1cc([C@H]2c3cc(O)c(OC)cc3C[C@@H](CO)[C@@H]2CO)ccc1O [ISOLARICIRESINOL] . Return the value.
-- reply 97.7

Reference source for all entries: ChEMBL document CHEMBL1667737
